Test: Cmax in Beagle dog at 2 mg/kg, iv measured up to 24 hrs by LC-MS/MS analysis
Assay type: ADME, organism-based, Canis lupus familiaris
Details: in vivo
READOUT_NAME: Cmax (ng/mL)
Number only, in ng/mL; omit the unit.

Dear colleague, please send me the reported Cmax for Cn1c(=O)n(C2CCC(=O)NC2=O)c2cccc(C#CCO[C@H]3CC[C@H](CN4CCC5(CC4)Cc4cc(NC(=O)c6coc7cccnc67)c(N6CCC(CO)CC6)cc4O5)CC3)c21 (stereo partly specified) when you can.
599

----------
Experiment: Tmax in cynomolgus monkey at 20 mg/kg, po measured up to 24 hrs by LC-MS/MS analysis
Format: ADME, organism-based, Macaca fascicularis
Conditions: in vivo
READOUT_NAME: Tmax
Report as: number unit

Report Tmax for Cn1c(=O)n(C2CCC(=O)NC2=O)c2cccc(C#CCO[C@H]3CC[C@H](CN4CCC5(CC4)Cc4cc(NC(=O)c6coc7cccnc67)c(N6CCC(CO)CC6)cc4O5)CC3)c21 (stereo partly specified)
6 h

The reported measurements were obtained from ChEMBL document CHEMBL6182949.
